- Tested on: U251 CNS
- ASSAY_PROTOCOL: NCI tumour cell line growth inhibition, 48 h
METRIC_NAME: TGI

[
  {
    "MOLECULE": "CCCC(=O)NC(Nc1ccc(S(=O)(=O)Nc2nc(C)cc(C)n2)cc1)(C(F)(F)F)C(F)(F)F",
    "ENDPOINT_VALUE": "> 100 µM"
  },
  {
    "MOLECULE": "O=C(O)c1ccn(-c2cccc(-n3ccc(C(=O)O)n3)n2)n1",
    "ENDPOINT_VALUE": "> 100 µM"
  },
  {
    "MOLECULE": "COc1cc(C(C)c2cc3c(cc2OCCO)OCO3)cc(OC)c1OC (stereo unspecified)",
    "ENDPOINT_VALUE": "> 100 µM"
  },
  {
    "MOLECULE": "CC(C)C(OC(=O)c1ccc(NCc2cc(O)ccc2O)cc1)C(C)C",
    "ENDPOINT_VALUE": "2.85 µM"
  },
  {
    "MOLECULE": "COC(=O)C1=CC2C(=O)OC1CC2C#N (stereo unspecified)",
    "ENDPOINT_VALUE": "> 100 µM"
  },
  {
    "MOLECULE": "C/C(Nc1ccc(F)cc1)=C1/CCOC1=O",
    "ENDPOINT_VALUE": "> 100 µM"
  }
]

* * *

- System: SK-MEL-2 melanoma
- ASSAY_PROTOCOL: NCI tumour cell line growth inhibition, 48 h

[
  {
    "COMPOUND": "O=C1CC(S(=O)(=O)O)C=C1Nc1cccc(Cl)c1 (centres undefined)",
    "TGI": "> 100 µM"
  },
  {
    "COMPOUND": "CCCCN(CCCC)c1ccc(C(=N)c2ccc(N(CCCC)CCCC)cc2)cc1",
    "TGI": "1.31 µM"
  },
  {
    "COMPOUND": "Cc1ccc(Nc2nc(C)c(C(/C=C/c3ccc(/C=C/C(=N/NC(=O)C[n+]4ccccc4)c4sc(Nc5ccc(C)cc5[N+](=O)[O-])nc4C)cc3)=N\\NC(=O)C[n+]3ccccc3)s2)c([N+](=O)[O-])c1",
    "TGI": "> 100 µM"
  },
  {
    "COMPOUND": "COC(=O)C(Cc1ccccc1)NP(=O)(O)OCC1OC(n2cc(F)c(=O)[nH]c2=O)CC1O (centres undefined)",
    "TGI": "> 100 µM"
  }
]

* * *

- System: NCI-H23 lung
- ASSAY_PROTOCOL: NCI tumour cell line growth inhibition, 48 h
# GI50 per entry

[
  {
    "COMPOUND": "COc1ccc(/C=C2\\CCCC3=C2NC(N)=NC3c2ccc(OC)c(OC)c2)cc1OC (stereo not given)",
    "GI50": "7.33 µM"
  },
  {
    "COMPOUND": "O=C(NN1C(=O)CSC12CCCC2)c1[nH]c2ccc(Br)cc2c1-c1ccccc1",
    "GI50": "41.1 µM"
  },
  {
    "COMPOUND": "CC(C)(O)CC(=O)NCCn1ccc2ncnc(Nc3ccc(Oc4cccc(C(F)(F)F)c4)c(Cl)c3)c21",
    "GI50": "3.76 µM"
  },
  {
    "COMPOUND": "O=C(Nc1cccc(NC(=O)Nc2cc(C(F)(F)F)ccc2Cl)c1)Nc1cc(C(F)(F)F)ccc1Cl",
    "GI50": "2.61 µM"
  },
  {
    "COMPOUND": "Nc1nc(Nc2ccc(C3CCC(N4CCOCC4)CC3)cc2)nn1-c1ccccn1 (stereo not given)",
    "GI50": "2.61 µM"
  }
]

* * *

# TGI per entry
- Tested on: SR leukemia
- ASSAY_PROTOCOL: NCI tumour cell line growth inhibition, 48 h
METRIC_NAME: TGI

[
  {
    "STRUCTURE_SMILES": "O=C(COc1ccc(/C=C2\\Oc3ccccc3C2=O)cc1)Nc1nc2c(s1)CCCC2",
    "ENDPOINT_VALUE": "2.44 µM"
  },
  {
    "STRUCTURE_SMILES": "O=c1c2cc(I)ccc2nc(-c2cccs2)n1-c1ccc(O)cc1",
    "ENDPOINT_VALUE": "> 100 µM"
  },
  {
    "STRUCTURE_SMILES": "O=c1nc2oc3ccc4ccccc4c3cc-2s1",
    "ENDPOINT_VALUE": "> 100 µM"
  },
  {
    "STRUCTURE_SMILES": "COc1ccc(-n2c(=O)n(C)c(=O)n2-c2ccc(OC)cc2)cc1",
    "ENDPOINT_VALUE": "> 100 µM"
  },
  {
    "STRUCTURE_SMILES": "O=C(c1cc(Cl)ccc1Cl)N1CCN(C(=O)c2cc(Cl)ccc2Cl)CC1",
    "ENDPOINT_VALUE": "> 100 µM"
  }
]

* * *

- Tested on: EKVX NSCLC
- ASSAY_PROTOCOL: NCI tumour cell line growth inhibition, 48 h

[
  {
    "MOLECULE": "COc1ccc(C(=O)C(c2ccc(OC)cc2)C2(O)C(=O)Nc3c2ccc(Cl)c3C)cc1 (stereo not given)",
    "TGI": "> 100 µM"
  },
  {
    "MOLECULE": "CN1CC[C@@H](c2c(O)cc(O)c3c(=O)cc(-c4ccccc4Cl)oc23)[C@@H]1CO",
    "TGI": "> 8.02 µM"
  },
  {
    "MOLECULE": "Cc1ccc(Nc2nc(C)c(C(/C=C/c3ccc(/C=C/C(=N/NC(=O)C[n+]4ccccc4)c4sc(Nc5ccc(C)cc5[N+](=O)[O-])nc4C)cc3)=N\\NC(=O)C[n+]3ccccc3)s2)c([N+](=O)[O-])c1",
    "TGI": "> 100 µM"
  },
  {
    "MOLECULE": "O=c1ccn(CC2(CO)CC(Cc3ccccc3)C2)c(=O)[nH]1 (stereo not given)",
    "TGI": "> 100 µM"
  },
  {
    "MOLECULE": "CC1CC/C(=C\\c2ccc(Cl)cc2)C2OC(N)=C(C#N)C(c3ccc(Cl)cc3)=C12 (stereo not given)",
    "TGI": "22.7 µM"
  },
  {
    "MOLECULE": "COc1ccc(C(C#N)Cc2cc(OC)c(OC)c(OC)c2)cc1 (stereo not given)",
    "TGI": "> 100 µM"
  },
  {
    "MOLECULE": "CN(C)c1nc2oc(-c3ccccc3)c(-c3ccccc3)c2c2nnnn12",
    "TGI": "> 100 µM"
  },
  {
    "MOLECULE": "COc1ccc(C2SC(C)C(=O)N2NC(=O)C(O)c2ccccc2)cc1OC (stereo not given)",
    "TGI": "> 100 µM"
  },
  {
    "MOLECULE": "CCCCN(CCCC)c1ccc(C(=N)c2ccc(N(CCCC)CCCC)cc2)cc1",
    "TGI": "1.15 µM"
  },
  {
    "MOLECULE": "CCOC(=O)c1cnc2oc3ccc(O)cc3c2c1-c1ccccc1",
    "TGI": "> 100 µM"
  },
  {
    "MOLECULE": "COc1cc(/C=C2\\Sc3scc(-c4cccc([N+](=O)[O-])c4)[n+]3C2=O)cc(OC)c1OC",
    "TGI": "26.5 µM"
  },
  {
    "MOLECULE": "C/C=C(/C)C(=O)O[C@H](C[C@@H](C)[C@H]1CC(c2ccoc2)OC1=O)[C@@]1(C)C(=O)CCC2O[C@]21C (stereo not given in full)",
    "TGI": "> 100 µM"
  },
  {
    "MOLECULE": "O=C(NC[C@H](O)CO)c1ccncc1Nc1ccc(I)cc1F",
    "TGI": "> 100 µM"
  },
  {
    "MOLECULE": "COC(=O)CCC(NC(=S)N/N=C/c1ccco1)C(=O)OC (stereo not given)",
    "TGI": "> 100 µM"
  },
  {
    "MOLECULE": "CCOC(=O)NC(=O)c1cn(CCN2CCN(c3ncnc4nc[nH]c34)CC2)c(=O)[nH]c1=O",
    "TGI": "> 100 µM"
  },
  {
    "MOLECULE": "CN(/N=C/c1cccc2cccnc12)c1ccccc1",
    "TGI": "> 100 µM"
  },
  {
    "MOLECULE": "CCOC(=O)c1c(N2CCCC2)ncn(Cc2ccccc2)c1=S",
    "TGI": "> 100 µM"
  },
  {
    "MOLECULE": "Cc1c2c(nn1C)CSCc1cc(n(C)n1)CSc1cc(c3ccccc3c1)OCCCc1c(C(=O)O)n(C)c3c-2c(Cl)ccc13",
    "TGI": "15.7 µM"
  },
  {
    "MOLECULE": "CN1c2ccccc2N(C)C23N(C)c4ccccc4N(C)C12N(C)c1ccccc1N3C (stereo not given)",
    "TGI": "> 100 µM"
  },
  {
    "MOLECULE": "Cc1ccc2c(c1C)C(=O)/C(=C/c1ccccc1C(=O)O)C2",
    "TGI": "> 100 µM"
  }
]
